Below is a list of entries, each paired with its recorded abundance fitness value.
B1: Gamma-crystallin C, residues 4 to 79; numbered along this chain, P07315 (parent)
chain: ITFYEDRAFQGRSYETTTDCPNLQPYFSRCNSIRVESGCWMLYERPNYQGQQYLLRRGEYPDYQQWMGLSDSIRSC

Variants of: B1
Assay: abundance fitness (aPCA) (normalised: wild type 0, dead -1); higher = more abundant; growth selection in yeast, the domain comes from the species named
Details: Homo sapiens
Reply briefly: the number, and no unit.

# input Could you share which abundance fitness value was measured for "Q52N" ?
# output -0.053
